tested on: Porcine atria myofibrils (atrial myosin ATPase); assay: Myofibril ATPase assay, porcine atria myofibrils; assay type: biochemical; settings: Y75 value (no ‡ mark); porcine atria myofibrils
Where Atrial EC25 equals or exceeds 1 µM, the correct label is criterion met; where it does not, the label is criterion not met.

Inquiry: Quick check: does C[C@H](C(=O)N[C@H](C)c1ncc(C#N)cc1F)c1cc2c(F)c(F)ccc2[nH]c1=O (single isomer, unassigned) have Atrial EC25 greater than or equal to 1 µM?
Reply text: criterion met

Inquiry: Quick check: does Cc1ccncc1[C@H](C)NC(=O)Cc1c(C)c2c(C)c(F)ccc2[nH]c1=O have Atrial EC25 greater than or equal to 1 µM?
Reply text: criterion met

Inquiry: Quick check: does C[C@H](NC(=O)C1(c2cc3c(F)c(F)ccc3[nH]c2=O)CC1)c1cc(C#N)ccn1 (single isomer, unassigned) have Atrial EC25 greater than or equal to 1 µM?
Reply text: criterion met

Inquiry: Quick check: does Cc1c(CC(=O)N[C@@H](C)c2ccc(C#N)cc2F)c(=O)[nH]c2ccc(F)c(C3CC3)c12 have Atrial EC25 greater than or equal to 1 µM?
Reply text: criterion met

Inquiry: Quick check: does C[C@H](NC(=O)Cc1cc2cc(F)c(F)cc2[nH]c1=O)c1ncc(C#N)cc1F (single isomer, unassigned) have Atrial EC25 greater than or equal to 1 µM?
Reply text: criterion met

Inquiry: Quick check: does Cc1c(CC(=O)N[C@H](C)c2cnc(C#N)cn2)c(=O)[nH]c2ccc(F)cc12 have Atrial EC25 greater than or equal to 1 µM?
Reply text: criterion met

Inquiry: Quick check: does Cc1c(C(F)(F)C(=O)N[C@H](C)c2nccc(C#N)n2)c(=O)[nH]c2ccc(F)cc12 (single isomer, unassigned) have Atrial EC25 greater than or equal to 1 µM?
Reply text: criterion met

Inquiry: Quick check: does Cc1c(F)ccc2[nH]c(=O)c(CC(=O)N[C@@H](C)c3ncc(F)cc3F)c(C#N)c12 have Atrial EC25 greater than or equal to 1 µM?
Reply text: criterion not met

Inquiry: Quick check: does C[C@@H](NC(=O)Cc1cc2cc(F)c(F)cc2[nH]c1=O)c1ccc(C#N)cn1 have Atrial EC25 greater than or equal to 1 µM?
Reply text: criterion met

Inquiry: Quick check: does Cc1c(C(F)(F)C(=O)N[C@H](C)c2ccc(F)cc2F)c(=O)[nH]c2ccc(F)cc12 have Atrial EC25 greater than or equal to 1 µM?
Reply text: criterion met

Inquiry: Quick check: does Cc1c(F)ccc2[nH]c(=O)c(CC(=O)N[C@@H](C)c3ccc(C#N)cc3F)c(O)c12 have Atrial EC25 greater than or equal to 1 µM?
Reply text: criterion not met

Inquiry: Quick check: does C[C@H](NC(=O)C1(c2cc3c(F)c(F)ccc3[nH]c2=O)CC1)c1ncc(C#N)cn1 (single isomer, unassigned) have Atrial EC25 greater than or equal to 1 µM?
Reply text: criterion met

Inquiry: Quick check: does Cc1c(CC(=O)N[C@H](C)c2ncc(C#N)cn2)c(=O)[nH]c2ccc(F)cc12 have Atrial EC25 greater than or equal to 1 µM?
Reply text: criterion not met

Inquiry: Quick check: does COc1ccc2[nH]c(=O)c(CC(=O)N[C@@H](C)c3ncc(F)cc3F)cc2c1C (single isomer, unassigned) have Atrial EC25 greater than or equal to 1 µM?
Reply text: criterion met

###

Give Ventricular EC25 for every item shown.
molecular target: Porcine ventricle myofibrils (ventricular myosin ATPase) (Sus scrofa); construct: Myofibrils from porcine cardiac muscle was isolated from the left ventricle of Yucatan minipigs; tissue Exemplar Genetics; host or cells: left ventricle of Yucatan minipigs, myofibrils prepared in house; assay: Myofibril ATPase assay, porcine ventricle myofibrils; assay type: biochemical, porcine (Yucatan minipigs); conditions: Y75 value (no ‡ mark); porcine ventricle myofibrils
Sequence (P79293 whole entry): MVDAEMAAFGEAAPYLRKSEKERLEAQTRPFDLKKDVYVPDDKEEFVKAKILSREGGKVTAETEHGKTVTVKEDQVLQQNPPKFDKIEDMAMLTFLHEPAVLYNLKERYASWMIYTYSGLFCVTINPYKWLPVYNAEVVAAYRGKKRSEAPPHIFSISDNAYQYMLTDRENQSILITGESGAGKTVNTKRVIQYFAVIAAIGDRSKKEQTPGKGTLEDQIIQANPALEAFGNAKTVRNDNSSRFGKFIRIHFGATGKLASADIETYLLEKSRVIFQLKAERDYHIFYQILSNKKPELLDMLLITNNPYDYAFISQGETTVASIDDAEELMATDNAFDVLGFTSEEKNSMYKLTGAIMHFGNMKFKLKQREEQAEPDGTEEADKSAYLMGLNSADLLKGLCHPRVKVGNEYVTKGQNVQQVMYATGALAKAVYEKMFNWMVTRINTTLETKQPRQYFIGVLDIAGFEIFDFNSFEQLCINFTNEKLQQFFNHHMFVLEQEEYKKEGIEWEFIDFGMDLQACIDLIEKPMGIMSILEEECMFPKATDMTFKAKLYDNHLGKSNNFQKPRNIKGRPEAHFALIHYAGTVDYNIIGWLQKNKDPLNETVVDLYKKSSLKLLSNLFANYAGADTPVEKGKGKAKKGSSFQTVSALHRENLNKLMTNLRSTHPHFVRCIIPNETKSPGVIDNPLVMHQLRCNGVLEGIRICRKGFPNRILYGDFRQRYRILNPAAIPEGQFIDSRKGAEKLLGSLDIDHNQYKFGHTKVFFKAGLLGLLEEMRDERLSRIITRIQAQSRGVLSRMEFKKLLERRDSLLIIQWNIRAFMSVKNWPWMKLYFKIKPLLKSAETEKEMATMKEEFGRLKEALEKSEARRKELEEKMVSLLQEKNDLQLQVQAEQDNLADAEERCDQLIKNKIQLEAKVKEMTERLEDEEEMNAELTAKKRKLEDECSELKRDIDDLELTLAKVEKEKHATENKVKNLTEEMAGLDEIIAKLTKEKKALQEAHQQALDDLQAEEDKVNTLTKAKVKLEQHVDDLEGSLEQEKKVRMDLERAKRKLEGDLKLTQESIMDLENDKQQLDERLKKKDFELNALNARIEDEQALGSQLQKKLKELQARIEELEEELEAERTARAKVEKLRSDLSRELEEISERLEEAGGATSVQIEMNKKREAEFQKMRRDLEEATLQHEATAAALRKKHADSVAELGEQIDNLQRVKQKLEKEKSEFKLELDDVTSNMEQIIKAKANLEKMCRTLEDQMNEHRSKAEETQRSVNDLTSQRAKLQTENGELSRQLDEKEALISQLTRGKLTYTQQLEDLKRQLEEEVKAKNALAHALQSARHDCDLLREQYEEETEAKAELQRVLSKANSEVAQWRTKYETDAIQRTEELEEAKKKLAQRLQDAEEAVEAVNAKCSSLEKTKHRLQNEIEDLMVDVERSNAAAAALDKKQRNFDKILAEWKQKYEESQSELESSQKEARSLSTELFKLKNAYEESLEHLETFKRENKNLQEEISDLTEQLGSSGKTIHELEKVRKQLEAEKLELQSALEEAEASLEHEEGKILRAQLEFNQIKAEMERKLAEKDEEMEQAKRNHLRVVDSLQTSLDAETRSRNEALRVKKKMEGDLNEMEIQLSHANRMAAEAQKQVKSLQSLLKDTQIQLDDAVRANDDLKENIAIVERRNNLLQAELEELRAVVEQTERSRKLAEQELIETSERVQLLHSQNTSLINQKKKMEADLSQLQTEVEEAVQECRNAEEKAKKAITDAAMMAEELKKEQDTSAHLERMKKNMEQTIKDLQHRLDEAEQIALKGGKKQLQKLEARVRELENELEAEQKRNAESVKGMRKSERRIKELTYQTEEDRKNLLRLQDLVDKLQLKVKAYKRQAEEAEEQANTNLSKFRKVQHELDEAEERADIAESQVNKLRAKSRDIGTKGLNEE
Dear colleague, please return just the value in µM, with no unit written.

Inquiry: Fetch value of Ventricular EC25 on Porcine ventricle myofibrils (ventricular myosin ATPase) (Sus scrofa) for C[C@H](NC(=O)C(F)(F)c1cc2cc(F)ccc2[nH]c1=O)c1cc(C#N)ccn1 (single isomer, unassigned) [compound 2574] .
Reply text: 100.00

Inquiry: Fetch value of Ventricular EC25 on Porcine ventricle myofibrils (ventricular myosin ATPase) (Sus scrofa) for N#Cc1cnc2c(n1)CC[C@@H]2NC(=O)Cc1cc2cc(F)c(F)cc2[nH]c1=O [compound 1083] .
Reply text: 100.00

Inquiry: Fetch value of Ventricular EC25 on Porcine ventricle myofibrils (ventricular myosin ATPase) (Sus scrofa) for Cc1c(CC(=O)N[C@H](C)c2ncc(C#N)cn2)c(=O)[nH]c2ccc(F)c(C#N)c12 (single isomer, unassigned) [compound 2015] .
Reply text: 1.45

Inquiry: Fetch value of Ventricular EC25 on Porcine ventricle myofibrils (ventricular myosin ATPase) (Sus scrofa) for COc1ccc2[nH]c(=O)c(CC(=O)N[C@@H](C)c3ccc(F)cc3F)cc2c1C [compound 92] .
Reply text: 100.00

Inquiry: Fetch value of Ventricular EC25 on Porcine ventricle myofibrils (ventricular myosin ATPase) (Sus scrofa) for Cc1c(C2(C(=O)N[C@@H](C)c3ncc(C#N)cc3F)CC2)c(=O)[nH]c2ccc(F)c(C#N)c12 (single isomer, unassigned) [compound 2524] .
Reply text: 0.31

Inquiry: Fetch value of Ventricular EC25 on Porcine ventricle myofibrils (ventricular myosin ATPase) (Sus scrofa) for Cc1nc(C#N)cnc1[C@@H](C)NC(=O)Cc1cc2cc(F)c(F)cc2[nH]c1=O (single isomer, unassigned) [compound 5] .
Reply text: 4.13

Inquiry: Fetch value of Ventricular EC25 on Porcine ventricle myofibrils (ventricular myosin ATPase) (Sus scrofa) for Cc1c(CC(=O)N[C@@H](C)c2cnc(C#N)nc2)c(=O)[nH]c2ccc(F)cc12 [compound 1101] .
Reply text: 0.31
